# Tested on: BaF3
# experimental protocol: Antiproliferative activity against mouse BaF3 cells harboring wildtype EGFR assessed as inhibition of cell growth incubated for 72 hrs by CellTiter-Glo luminescent assay
# Format: functional, cell-based
# applied conditions: BaF3, 72 h
pIC50: −log10 of the molar value.
experimental endpoint: pIC50

Some compounds with known pIC50 results, for comparison:
Q) Respond only with pIC50 recorded for CN1CCN(c2ccc(-c3ccc4c(c3)CN([C@H](C(=O)Nc3ccc(Nc5ccnc(N)n5)cc3)c3ccccc3)C4=O)cc2)CC1
A) 6.35

Q) Indicate its recorded pIC50; the compound in question is C=CC(=O)Nc1cc(Nc2nccc(-c3cn(C)c4ccccc34)n2)c(OC)cc1N(C)CCN(C)C [OSIMERTINIB]
A) 8.05

A: CN1CCN(c2ccc(-c3ccc4c(c3)CN(C(C(=O)Nc3ccc(Nc5ccnc(N)n5)cc3)c3ccccc3)C4=O)cc2)CC1 (racemic)
B: CN1CCN(c2ccc(-c3ccc4c(c3)CN([C@@H](C(=O)Nc3ccc(Nc5ccnc(N)n5)cc3)c3ccccc3)C4=O)cc2)CC1
Q) # compare pIC50 for A vs B ; return the one with the smaller value Output the label that corresponds to your choice.
A) A
(A: 5.82, B: 6.39)

====

# Test system: A549
# experimental protocol: Antiproliferative activity against human A549 cells assessed as inhibition of cell growth incubated for 72 hrs by MTT assay
# Format: functional, cell-based
# applied conditions: A549, 72 h
pIC50: −log10 of the molar value.
experimental endpoint: pIC50

Q) Answer with reported pIC50 of O=C(Nc1ccc(Nc2ccncc2)cc1)C(c1ccccc1)N1Cc2cc(-c3ccc(N4CCNCC4)cc3)ccc2C1=O (stereo unspecified)
A) 5.28

Q) Assign pIC50 to the following record: C=CC(=O)Nc1cc(Nc2nccc(-c3cn(C)c4ccccc34)n2)c(OC)cc1N(C)CCN(C)C
A) 5.84

P: CN1CCN(c2ccc(-c3ccc4c(c3)CN(C(C(=O)Nc3ccc(Nc5ccnc(N)n5)cc3)c3ccccc3)C4=O)cc2)CC1 (racemic)
Q: O=C(Nc1ccc(Nc2ccncn2)cc1)C(c1ccccc1)N1Cc2cc(-c3ccc(N4CCNCC4)cc3)ccc2C1=O (stereo unspecified)
Q) I'm curious whether P or Q has the smaller pIC50 number. Which is it? // output: label of the selected item
A) P

====

# Tested on: BaF3
# experimental protocol: Antiproliferative activity against mouse BaF3 cells harboring EGFR Del19/T790M/C797S triple mutant assessed as inhibition of cell growth incubated for 72 hrs by CellTiter-Glo luminescent assay
# Format: functional, cell-based
# applied conditions: BaF3, 72 h
experimental endpoint: IC50 (nM)

Known results for molecules:
Q) Report IC50 for C=CC(=O)Nc1cc(Nc2nccc(-c3cn(C)c4ccccc34)n2)c(OC)cc1N(C)CCN(C)C
A) 750

Q) Respond only with IC50 recorded for Nc1nccc(Nc2ccc(NC(=O)C(c3ccccc3)N3Cc4cc(-c5ccc(N6CCNCC6)cc5)ccc4C3=O)c(Cl)c2)n1 (stereo not drawn)
A) 860

P: Nc1nccc(Nc2ccc(NC(=O)C(c3ccccc3)N3Cc4cc(-c5ccc(N6CCCCC6)cc5)ccc4C3=O)cc2)n1 (racemic)
Q: CCN(CC)c1ccc(-c2ccc3c(c2)CN(C(C(=O)Nc2ccc(Nc4ccnc(N)n4)cc2)c2ccccc2)C3=O)cc1 (racemic)
R: Nc1nccc(Nc2ccc(NC(=O)C(c3ccccc3)N3Cc4cc(-c5ccc(N6CCNCC6)cc5)ccc4C3=O)cc2F)n1 (stereo not drawn)
Q) Sequence the entries by IC50, beginning with the highest number. Note for the reader: the ranking is given by listing the labels in the order requested.
A) P, R, Q

P: Nc1nccc(Nc2ccc(NC(=O)C(c3ccccc3)N3Cc4cc(-c5ccc(N6CCOCC6)cc5)ccc4C3=O)cc2)n1 (racemic)
Q: Nc1nccc(Nc2ccc(NC(=O)C(c3ccccc3)N3Cc4cc(-c5ccc(N6CCNCC6)cc5)ccc4C3=O)cc2Cl)n1 (stereo not drawn)
R: CN1CCN(c2ccc(-c3ccc4c(c3)CN([C@@H](C(=O)Nc3ccc(Nc5ccnc(N)n5)cc3)c3ccccc3)C4=O)cc2)CC1
Q) Write the entries in order, lowest recorded IC50 first. Lab note: record answer as labels in requested order.
A) R, Q, P
(R: 410 nM, Q: 860 nM, P: 1960 nM)
